assay_system: T1, CD52 human leukocyte antigen (human, UniProt P31358 25-36)
T1 construct: whole, on cells; also called CD52 antigen
T1 chain (looked up): GQNDTSQTSSPS
assay_details: FACS on HUT-78 cells (CD52+), FITC anti-human IgG Fc, median fluorescence, 4-parameter fit; titre = 50% of maximum binding
parameter: EC50 (µg/mL)
Write the number in µg/mL without appending the unit.

| binder | recorded_measurement |
| --- | --- |
| DIVH5/DIVK3 (antibody, human IgG1, V domains shown, also called DIVHv5/DIVKv3) VH: EVQLLESGGGLVQPGGSLRLSCAGSGFTFTDFYMNWIRQPPGKAPEWLGFIRDKAKGYTTEYNPSVKGRFTISRDNSKNTLYLQMNSLRAEDTAVYYCAREGHTAAPFDYWGQGTLVTVSS VL: DIQMTQSPSSLSASVGDRVTITCRASQNIDKYLNWYQQKPGKAPKLLIYNTNNLQSGVPSRFSGSGSGTDFTLTISSLQPEDIATYYCLQHISRPRTFGTGTKLELK | 2.55 |
| DIVH1/DIVK5 (antibody, human IgG1, V domains shown, also called DIVHv1/DIVKv5) VH: EVQLLESGGGLVQPGGSLRLSCAGSGFTFTDFYMNWVRQAPGKGLEWVGFIRDKAKGYTTEYNPSVKGRFTISRDNSKNTLYLQMNSLRAEDTAVYYCAREGHTAAPFDYWGQGTLVTVSS VL: DIQMTQSPSSLSASVGDRVTITCKASQNIDKYLNWYQQKPGKSPKLLIYNTNNLQTGVPSRFSGSGSGTDFTLTISSLQPEDIATYYCLQHISRPRTFGTGTKLELK | 1.85 |
| DIVH1/DIVK1 (antibody, human IgG1, V domains shown, also called DIVHv1/DIVKv1) VH: EVQLLESGGGLVQPGGSLRLSCAGSGFTFTDFYMNWVRQAPGKGLEWVGFIRDKAKGYTTEYNPSVKGRFTISRDNSKNTLYLQMNSLRAEDTAVYYCAREGHTAAPFDYWGQGTLVTVSS VL: DIQMTQSPSSLSASVGDRVTITCRASQNIDKYLNWYQQKPGKAPKSLIYNTNNLQSGVPSRFSGSGSGTDFTLTISSLQPEDIATYYCLQHISRPRTFGTGTKLELK | 2.99 |
| DIVH2/DIVK5 (antibody, human IgG1, V domains shown, also called DIVHv2/DIVKv5; CAMPATH-1G DIVHv2/DIVKv5) VH: EVQLLESGGGLVQPGGSLRLSCAGSGFTFTDFYMNWIRQPPGKAPEWIGFIRDKAKGYTTEYNPSVKGRFTISRDNSKNTLYLQMNSLRAEDTAVYYCAREGHTAAPFDYWGQGTLVTVSS VL: DIQMTQSPSSLSASVGDRVTITCKASQNIDKYLNWYQQKPGKSPKLLIYNTNNLQTGVPSRFSGSGSGTDFTLTISSLQPEDIATYYCLQHISRPRTFGTGTKLELK | 1.18 |

As a next step, examine the binder that follows.
Problem: Tell us which EC50 value is on record for DIVH5/DIVK2 (antibody, human IgG1, V domains shown, also called DIVHv5/DIVKv2) VH: EVQLLESGGGLVQPGGSLRLSCAGSGFTFTDFYMNWIRQPPGKAPEWLGFIRDKAKGYTTEYNPSVKGRFTISRDNSKNTLYLQMNSLRAEDTAVYYCAREGHTAAPFDYWGQGTLVTVSS VL: DIQMTQSPSSLSASVGDRVTITCKASQNIDKYLNWYQQKPGKAPKLLIYNTNNLQTGVPSRFSGSGSGTDFTLTISSLQPEDIATYYCLQHISRPRTFGTGTKLELK
Result: 2.45

Recorded values, source patent US20050152898A1.
